Parameter: abundance fitness. Scope: all listed entries.
B1: Poly(rC)-binding protein 1, residues 278 to 350; numbered along this chain, Q15365 (parent)
chain: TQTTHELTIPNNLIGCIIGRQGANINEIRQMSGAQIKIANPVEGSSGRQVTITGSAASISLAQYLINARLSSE

variants of: B1; assay: abundance fitness (aPCA) (normalised: wild type 0, dead -1); higher = more abundant; growth selection in yeast, the domain comes from the species named; details: Homo sapiens
metric: abundance fitness

{"variant": "Q30L", "numeric_readout": -0.163}
{"variant": "T51Y", "numeric_readout": -0.07}
{"variant": "G54Q", "numeric_readout": -1.11}
{"variant": "I14T", "numeric_readout": -0.17}
{"variant": "N11L", "numeric_readout": -0.473}
{"variant": "T4P", "numeric_readout": -0.271}
{"variant": "T3G", "numeric_readout": 0.167}
{"variant": "I59W", "numeric_readout": -0.752}
{"variant": "T51E", "numeric_readout": -0.097}
{"variant": "E73S", "numeric_readout": 0.302}
{"variant": "I28A", "numeric_readout": -0.735}
{"variant": "S45I", "numeric_readout": -0.093}
{"variant": "E43T", "numeric_readout": -0.119}
{"variant": "P10L", "numeric_readout": -0.597}
{"variant": "R48W", "numeric_readout": -0.184}
{"variant": "I25L", "numeric_readout": -0.072}
{"variant": "M31V", "numeric_readout": -0.126}
{"variant": "I17P", "numeric_readout": -1.17}
{"variant": "A57V", "numeric_readout": -0.243}
{"variant": "G47C", "numeric_readout": -0.097}
{"variant": "S55M", "numeric_readout": -0.536}
{"variant": "N12M", "numeric_readout": -0.316}
{"variant": "S46C", "numeric_readout": -0.021}
{"variant": "G47V", "numeric_readout": 0.017}
{"variant": "N67G", "numeric_readout": -0.082}
{"variant": "E43Q", "numeric_readout": -0.258}
{"variant": "C16H", "numeric_readout": -0.141}
{"variant": "T53K", "numeric_readout": 0.075}
{"variant": "T51W", "numeric_readout": -0.063}
{"variant": "I18W", "numeric_readout": -0.232}
{"variant": "S72H", "numeric_readout": -0.07}
{"variant": "T3D", "numeric_readout": 0.053}
{"variant": "I52T", "numeric_readout": -0.739}
{"variant": "L70P", "numeric_readout": -0.499}
{"variant": "E27Y", "numeric_readout": -0.157}
{"variant": "M31W", "numeric_readout": -0.325}
{"variant": "H5G", "numeric_readout": -0.081}
{"variant": "N24K", "numeric_readout": 0.076}
{"variant": "E73P", "numeric_readout": -0.161}
{"variant": "Q30E", "numeric_readout": 0.013}

Reference for the values: the Human Domainome abundance scans (Beltran et al. 2025)
